Reference source: patent US6906033

- target desc: human plasma kallikrein (human, UniProt P03952 20-638)
- Sequence (P03952 20-638): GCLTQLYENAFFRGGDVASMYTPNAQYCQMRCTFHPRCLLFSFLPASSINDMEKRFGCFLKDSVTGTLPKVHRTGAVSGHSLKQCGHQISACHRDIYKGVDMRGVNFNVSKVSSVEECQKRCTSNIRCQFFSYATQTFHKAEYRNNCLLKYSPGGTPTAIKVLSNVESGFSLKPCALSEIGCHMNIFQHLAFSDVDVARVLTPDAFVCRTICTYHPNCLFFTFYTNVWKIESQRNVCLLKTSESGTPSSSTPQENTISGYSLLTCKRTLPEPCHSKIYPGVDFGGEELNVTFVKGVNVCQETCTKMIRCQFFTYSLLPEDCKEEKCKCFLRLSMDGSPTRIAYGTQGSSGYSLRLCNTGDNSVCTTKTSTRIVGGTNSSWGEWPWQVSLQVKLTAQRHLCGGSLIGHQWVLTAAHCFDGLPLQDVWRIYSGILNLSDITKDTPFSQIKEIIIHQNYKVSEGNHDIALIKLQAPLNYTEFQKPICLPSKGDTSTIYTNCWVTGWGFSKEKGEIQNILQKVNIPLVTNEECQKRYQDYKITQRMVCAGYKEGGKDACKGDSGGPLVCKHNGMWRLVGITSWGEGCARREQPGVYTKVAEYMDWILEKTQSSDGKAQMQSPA
- assay info: enzyme inhibition
property label: Ki (nM)
Respond with the bare value in nM.

TW6161 (protein) EVVREVCSEQAETGPCRAMISRWYFDVTEGKCAPFFYGGCYGNRNNFDTEEYCMAVCGSAI :: 7.5

Let us move to another entry and its Ki.
Lab book: Ki of TW6149 (protein) EVVREVCSEQAETGPCRAMISRWYFDVTEGKCAPFFYGGCGGNANNFDTEEYCMAVCGSAI noted as 54
